Target: GABAA1 (α1β2γ2) receptor (Homo sapiens, UniProt P14867+P47870)
Construct: expressed in transfected cells
Sequence (P14867 28-456): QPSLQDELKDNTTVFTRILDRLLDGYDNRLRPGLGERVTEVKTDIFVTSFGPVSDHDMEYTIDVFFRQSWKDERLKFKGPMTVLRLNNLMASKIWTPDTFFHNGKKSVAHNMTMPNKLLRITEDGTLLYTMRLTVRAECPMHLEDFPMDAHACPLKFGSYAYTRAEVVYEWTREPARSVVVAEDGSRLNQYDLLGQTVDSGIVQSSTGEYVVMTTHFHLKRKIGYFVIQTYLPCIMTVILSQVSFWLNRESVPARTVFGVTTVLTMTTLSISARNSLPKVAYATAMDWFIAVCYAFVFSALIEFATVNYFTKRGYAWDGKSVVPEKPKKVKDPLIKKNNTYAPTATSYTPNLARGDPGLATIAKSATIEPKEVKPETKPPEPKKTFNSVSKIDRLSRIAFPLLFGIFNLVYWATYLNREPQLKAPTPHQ
Sequence (P47870 26-512): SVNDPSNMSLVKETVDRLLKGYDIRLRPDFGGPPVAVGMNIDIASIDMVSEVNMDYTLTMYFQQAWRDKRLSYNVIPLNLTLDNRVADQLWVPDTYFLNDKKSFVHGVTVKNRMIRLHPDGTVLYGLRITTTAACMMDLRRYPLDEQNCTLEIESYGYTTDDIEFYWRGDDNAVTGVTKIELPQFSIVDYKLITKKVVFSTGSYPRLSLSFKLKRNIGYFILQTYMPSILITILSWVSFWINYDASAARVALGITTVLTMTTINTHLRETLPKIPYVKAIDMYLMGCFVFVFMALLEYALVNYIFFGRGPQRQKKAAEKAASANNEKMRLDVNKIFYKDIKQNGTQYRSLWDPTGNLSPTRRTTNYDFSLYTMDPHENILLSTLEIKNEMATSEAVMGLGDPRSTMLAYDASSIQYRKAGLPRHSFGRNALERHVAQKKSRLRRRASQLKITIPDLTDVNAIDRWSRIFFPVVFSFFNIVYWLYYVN
Sequence (P18507 40-475 partner): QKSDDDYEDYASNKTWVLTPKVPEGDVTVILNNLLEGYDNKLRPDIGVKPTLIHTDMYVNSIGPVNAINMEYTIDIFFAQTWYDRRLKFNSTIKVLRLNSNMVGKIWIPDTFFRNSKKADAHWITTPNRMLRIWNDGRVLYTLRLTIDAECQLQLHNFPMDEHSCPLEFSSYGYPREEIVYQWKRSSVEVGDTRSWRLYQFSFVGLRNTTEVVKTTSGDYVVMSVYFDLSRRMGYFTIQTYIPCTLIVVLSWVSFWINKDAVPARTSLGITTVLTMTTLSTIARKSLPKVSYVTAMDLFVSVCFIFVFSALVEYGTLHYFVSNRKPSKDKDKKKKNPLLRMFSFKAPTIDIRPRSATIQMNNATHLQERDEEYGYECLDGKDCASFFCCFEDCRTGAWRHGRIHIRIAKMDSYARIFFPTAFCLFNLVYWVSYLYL
Assay: Patch-clamp electrophysiology on recombinant GABAA1 receptor in HEK293 cells, with 3 μM GABA
Format: cell-based
Conditions: HEK293; 1 μM compound together with 3 μmol GABA; read-out: potency: ratio of the peak current on the GABAA1 receptor to the peak current in 100 μmol GABA
measuredProperty: Emax at 1 µM

Solved entries (count: 9):
Cc1nnnn1CC(=O)[C@H]1CCC[C@H]2[C@@H]3CC[C@H]4C[C@H](O)CC[C@]4(C)[C@H]3CC[C@]12C [KH019]: 0 to 20%
C[C@]12CC[C@@H](O)C[C@@H]1CC[C@@H]1[C@@H]2CC[C@]2(C)[C@@H](C(=O)Cn3cnc4ncnc(Cl)c43)CCC[C@@H]12 [KH015]: 0 to 20%
C[C@]12CC[C@@H](O)C[C@@H]1CC[C@@H]1[C@@H]2CC[C@]2(C)[C@@H](C(=O)CN3CC4(COC4)C3)CCC[C@@H]12 [KH020]: 0 to 20%
C[C@@]1(O)CC[C@H]2[C@H](CC[C@@H]3[C@@H]2CC[C@]2(C)[C@@H](C(=O)Cn4cc(C#N)cn4)CC[C@@H]32)C1 [The control, reference compound]: 20 to 40%
C[C@@]1(O)CC[C@@]2(C)[C@@H](CC[C@@H]3[C@@H]2CC[C@]2(C)[C@@H](C(=O)COc4nc5ccccc5o4)CCC[C@@H]32)C1 [KH028]: 0 to 20%
C[C@@]1(O)CC[C@@]2(C)[C@@H](CC[C@@H]3[C@@H]2CC[C@]2(C)[C@@H](C(=O)Cn4cnnn4)CCC[C@@H]32)C1 [KH023]: 0 to 20%
C[C@@]1(O)CC[C@@]2(C)[C@@H](CC[C@@H]3[C@@H]2CC[C@]2(C)[C@@H](C(=O)COc4ccc5ccccc5n4)CCC[C@@H]32)C1 [KH033]: 20 to 40%
C[C@]12CC[C@@H](O)C[C@@H]1CC[C@@H]1[C@@H]2CC[C@]2(C)[C@@H](C(=O)CO)CCC[C@@H]12 [KH014]: 40 to 60%
C[C@@]1(O)CC[C@@]2(C)[C@@H](CC[C@@H]3[C@@H]2CC[C@]2(C)[C@@H](C(=O)COc4ccon4)CCC[C@@H]32)C1 [KH038]: 40 to 60%

The record that follows has no Emax at 1 µM shown yet.
Form field: reported Emax at 1 µM of Cn1cnnc1SCC(=O)[C@H]1CCC[C@H]2[C@@H]3CC[C@H]4C[C@](C)(O)CC[C@]4(C)[C@H]3CC[C@]12C [KH037]
0 to 20%
